List of IC50 values.
Tested on: RAW264.7
Experiment: Cytotoxicity against mouse RAW264.7 cells assessed as reduction in cell viability incubated for 24 hrs in presence of LPS by MTT assay
Assay type: cell-based
Settings: RAW264.7, 24 h
MEASURED ENDPOINT: IC50

[[record]]
compound = "COc1cc(OC)c2c(c1)C(C(O)c1ccc(OCc3ccc(OC(F)(F)F)cc3)cc1)OC2=O (stereo unspecified)"
measured_endpoint = "IC50"
result = "> 40 µM"

[[record]]
compound = "CCCCCCOc1ccc(C(O)C2OC(=O)c3c(OC)cc(OC)cc32)cc1 (stereo unspecified)"
measured_endpoint = "IC50"
result = "> 40 µM"

[[record]]
compound = "C=CCCOc1ccc(C(O)C2OC(=O)c3c(OC)cc(OC)cc32)cc1 (stereo unspecified)"
measured_endpoint = "IC50"
result = "> 40 µM"

[[record]]
compound = "COc1cc(OC)c2c(c1)C(C(O)c1ccc(OCc3ccc(Cl)cc3)cc1)OC2=O (stereo unspecified)"
measured_endpoint = "IC50"
result = "> 40 µM"

[[record]]
compound = "CCCOc1ccc(C(O)C2OC(=O)c3c(OC)cc(OC)cc32)cc1 (stereo unspecified)"
measured_endpoint = "IC50"
result = "> 40 µM"

[[record]]
compound = "COc1cc(OC)c2c(c1)/C(=C/c1ccc(OCc3ccccc3)cc1)OC2=O"
measured_endpoint = "IC50"
result = "> 40 µM"

[[record]]
compound = "CCOCCOc1ccc(C(O)C2OC(=O)c3c(OC)cc(OC)cc32)cc1 (stereo unspecified)"
measured_endpoint = "IC50"
result = "> 40 µM"

[[record]]
compound = "COc1cc(OC)c2c(c1)C(C(O)c1ccc(OCc3ccc(F)cc3)cc1)OC2=O (stereo unspecified)"
measured_endpoint = "IC50"
result = "> 40 µM"

[[record]]
compound = "COc1cc(OC)c2c(c1)C(C(O)c1ccc(OCc3ccccc3)cc1)OC2=O (stereo unspecified)"
measured_endpoint = "IC50"
result = "> 40 µM"

[[record]]
compound = "COc1cc(OC)c2c(c1)C(C(O)c1ccc(OCc3ccc(C)cc3)cc1)OC2=O (stereo unspecified)"
measured_endpoint = "IC50"
result = "> 40 µM"

[[record]]
compound = "O=C1OC(Cc2nc(-c3ccc(-c4ccccc4)cc3)no2)c2ccccc21 (stereo unspecified)"
measured_endpoint = "IC50"
result = "> 40 µM"

[[record]]
compound = "COc1ccc(/C=C2\\OC(=O)c3c(OC)cc(OC)cc32)cc1"
measured_endpoint = "IC50"
result = "> 40 µM"

[[record]]
compound = "COc1cc(OC)c2c(c1)C(C(O)c1ccc(OCC(C)C)cc1)OC2=O (stereo unspecified)"
measured_endpoint = "IC50"
result = "> 40 µM"

[[record]]
compound = "Cc1noc(CC2OC(=O)c3ccccc32)n1 (stereo unspecified)"
measured_endpoint = "IC50"
result = "> 40 µM"

[[record]]
compound = "COc1cc(OC)c2c(c1)/C(=C/c1ccc(OCc3ccc(F)cc3)cc1)OC2=O"
measured_endpoint = "IC50"
result = "> 40 µM"

[[record]]
compound = "COc1cc(OC)c2c(c1)C(C(O)c1ccc(OCCOc3ccccc3)cc1)OC2=O (stereo unspecified)"
measured_endpoint = "IC50"
result = "> 40 µM"

[[record]]
compound = "COc1cc(OC)c2c(c1)C(C(O)c1ccc(OCC3CCCCC3)cc1)OC2=O (stereo unspecified)"
measured_endpoint = "IC50"
result = "> 40 µM"

[[record]]
compound = "COCCCOc1ccc(C(O)C2OC(=O)c3c(OC)cc(OC)cc32)cc1 (stereo unspecified)"
measured_endpoint = "IC50"
result = "> 40 µM"

[[record]]
compound = "CCOc1ccc(C(O)C2OC(=O)c3c(OC)cc(OC)cc32)cc1 (stereo unspecified)"
measured_endpoint = "IC50"
result = "> 40 µM"

[[record]]
compound = "CCCCOc1ccc(C(O)C2OC(=O)c3c(OC)cc(OC)cc32)cc1 (stereo unspecified)"
measured_endpoint = "IC50"
result = "> 40 µM"

[[record]]
compound = "O=C1OC(Cc2nc(-c3ccccc3)no2)c2ccccc21 (stereo unspecified)"
measured_endpoint = "IC50"
result = "> 40 µM"

[[record]]
compound = "COc1cc(OC)c2c(c1)C(C(O)c1ccc(O)cc1)OC2=O (stereo unspecified)"
measured_endpoint = "IC50"
result = "> 40 µM"

[[record]]
compound = "COc1cc(OC)c2c(c1)C(C(O)c1ccc(OCc3ccc(OC(F)F)cc3)cc1)OC2=O (stereo unspecified)"
measured_endpoint = "IC50"
result = "> 40 µM"

[[record]]
compound = "COc1ccc2c(c1)c(CC(=O)O)c(C)n2C(=O)c1ccc(Cl)cc1 [INDOMETHACIN]"
measured_endpoint = "IC50"
result = "> 40 µM"

[[record]]
compound = "COc1cc(OC)c2c(c1)C(C(O)c1ccc(OCc3ccc(Br)cc3)cc1)OC2=O (stereo unspecified)"
measured_endpoint = "IC50"
result = "> 40 µM"

[[record]]
compound = "COCCCCOc1ccc(C(O)C2OC(=O)c3c(OC)cc(OC)cc32)cc1 (stereo unspecified)"
measured_endpoint = "IC50"
result = "> 40 µM"

[[record]]
compound = "O=C1OC(Cc2nc(-c3ccc(Oc4ccccc4)cc3)no2)c2ccccc21 (stereo unspecified)"
measured_endpoint = "IC50"
result = "> 40 µM"

[[record]]
compound = "COc1cc(OC)c2c(c1)C(C(O)c1ccc(OCc3ccc(C#N)cc3)cc1)OC2=O (stereo unspecified)"
measured_endpoint = "IC50"
result = "> 40 µM"

[[record]]
compound = "COc1ccc(C(O)C2OC(=O)c3c(OC)cc(OC)cc32)cc1 (stereo unspecified)"
measured_endpoint = "IC50"
result = "> 40 µM"

[[record]]
compound = "COCCOc1ccc(C(O)C2OC(=O)c3c(OC)cc(OC)cc32)cc1 (stereo unspecified)"
measured_endpoint = "IC50"
result = "> 40 µM"

[[record]]
compound = "O=C1OC(Cc2nc(Cc3ccccc3)no2)c2ccccc21 (stereo unspecified)"
measured_endpoint = "IC50"
result = "> 40 µM"

